Data origin, for the record: patent US20240425512A1

- protocolNotes: Pharmacokinetic study in mice after oral administration
- Format: in vivo
- details: mouse, 30 mg/kg, male C57BL/6J mice, plasma
endpoint: AUC(0-inf)

| smilesRecord | endpoint | result |
| --- | --- | --- |
| C#Cc1c(F)ccc2cc(O)cc(-c3ncc4c(N5CCCCCN5)nc(OC[C@@]56CCCN5C[C@H](F)C6)nc4c3F)c12 | AUC(0-inf) | 10400 ng·h/mL |

###

- protocolNotes: Pharmacokinetic study in mice after intravenous administration
- Assay type: in vivo
- details: mouse, 5 mg/kg, male C57BL/6J mice, plasma, 5% DMSO + 10% Solutol HS15 + 85% (20% HP-β-CD in water)
- Experimental: After intravenous and oral administration in male C57BL/6J mice (6-8 weeks), plasma samples were collected through the orbital venous plexus at 8 time points (5 min, 15 min, 30 min, 1 h, 2 h, 4 h, 7 h, 24 h), and the collected blood samples were transferred to microcentrifuge tubes containing EDTA-K2 anticoagulant, and centrifuged at 4° C., 4,000 g. After 5 min, the supernatant was taken and stored in a refrigerator at −75° C. ±15° C. […]

| smilesRecord | half-life (h) |
| --- | --- |
| C#Cc1c(F)ccc2cc(O)cc(-c3ncc4c(N5CCCCCN5)nc(OC[C@@]56CCCN5C[C@H](F)C6)nc4c3F)c12 | 2.63 |

###

- System: NCI-H358 human non-small cell lung cancer cell line with KRAS G12C mutation
- protocolNotes: Proliferation inhibition on RAS cell lines measured by CTG, NCI-H358
- Format: cell-based
- details: Homo sapiens, 144 h; Table 1; NCI-H358 cells, incubated for 6 days, CellTiter Glo; read-out: IC50 (H358 ^b)
pIC50: −log10 of the molar value.

| smilesRecord | experimentalSystem | pIC50 |
| --- | --- | --- |
| C#Cc1c(F)ccc2cc(O)cc(-c3ncc4c(N5CCCCCN5)nc(OC[C@@]56CCCN5C[C@H](F)C6)nc4c3F)c12 | NCI-H358 human non-small cell lung cancer cell line with KRAS G12C mutation | > 7.00 |
| CCc1c(F)ccc2cc(O)cc(-c3ncc4c(N5CCCCCN5)nc(OC[C@@]56CCCN5C[C@H](F)C6)nc4c3F)c12 | NCI-H358 human non-small cell lung cancer cell line with KRAS G12C mutation | > 7.00 |
| CCc1c(F)ccc2cc(O)cc(-c3ncc4c(N5CCOCCN5)nc(OC[C@@]56CCCN5C[C@H](F)C6)nc4c3F)c12 | NCI-H358 human non-small cell lung cancer cell line with KRAS G12C mutation | > 7.00 |

###

- protocolNotes: Pharmacokinetic study in mice after oral administration
- Assay type: in vivo
- details: mouse, 30 mg/kg, male C57BL/6J mice, plasma

| compound | Tmax |
| --- | --- |
| C#Cc1c(F)ccc2cc(O)cc(-c3ncc4c(N5CCCCCN5)nc(OC[C@@]56CCCN5C[C@H](F)C6)nc4c3F)c12 [Compound 4] | 4 h |

###

- System: NCI-H358 human non-small cell lung cancer cell line with KRAS G12C mutation
- protocolNotes: Proliferation inhibition on RAS cell lines measured by CTG, NCI-H358
- Type: cell-based
- details: Table 1; NCI-H358 cells, incubated for 6 days, CellTiter Glo; read-out: IC50 (H358 ^b)
Here the recorded IC50 is given for each entry.

| compound | experimentalSystem | IC50 |
| --- | --- | --- |
| CCc1c(F)ccc2cc(O)cc(-c3ncc4c(N5CC(C)(O)CCN5)nc(OCC56CCCN5CC(F)C6)nc4c3F)c12 (single isomer, unassigned) | NCI-H358 human non-small cell lung cancer cell line with KRAS G12C mutation | < 100 nM |
| C#Cc1c(F)ccc2cc(O)cc(-c3ncc4c(N5CCOCCN5)nc(OC[C@@]56CCCN5C[C@H](F)C6)nc4c3F)c12 | NCI-H358 human non-small cell lung cancer cell line with KRAS G12C mutation | < 100 nM |

###

Here the recorded IC50 is given for each entry.
- System: LoVo colon cancer cell with KRAS G13D mutation
- protocolNotes: Proliferation inhibition on RAS cell lines measured by CTG, LoVo
- Format: cell-based
- details: Homo sapiens, LoVo, 144 h, Table 1; LoVo cells, incubated for 6 days, CellTiter Glo; read-out: IC50 (LoVo^g)

| smilesRecord | IC50 |
| --- | --- |
| C#Cc1c(F)ccc2cc(O)cc(-c3ncc4c(N5CCCCCO5)nc(OC[C@@]56CCCN5C[C@H](F)C6)nc4c3F)c12 | < 100 nM |
| C#Cc1c(F)ccc2cc(O)cc(-c3ncc4c(N5CCCCCN5)nc(OC[C@@]56CCCN5C[C@H](F)C6)nc4c3F)c12 | < 100 nM |
| CCc1c(F)ccc2cc(O)cc(-c3ncc4c(N5CCCCCO5)nc(OC[C@@]56CCCN5C[C@H](F)C6)nc4c3F)c12 | 100 to 1000 nM |
| C#Cc1c(F)ccc2cccc(-c3ncc4c(N5CCCCCN5)nc(OC[C@@]56CCCN5C[C@H](F)C6)nc4c3F)c12 | 100 to 1000 nM |

###

- protocolNotes: Pharmacokinetic study in mice after intravenous administration
- Assay type: in vivo
- details: mouse, 5 mg/kg, male C57BL/6J mice, plasma
- Method: After intravenous and oral administration in male C57BL/6J mice (6-8 weeks), plasma samples were collected through the orbital venous plexus at 8 time points (5 min, 15 min, 30 min, 1 h, 2 h, 4 h, 7 h, 24 h), and the collected blood samples were transferred to microcentrifuge tubes containing EDTA-K2 anticoagulant, and centrifuged at 4° C., 4,000 g. After 5 min, the supernatant was taken and stored in a refrigerator at −75° C. ±15° C. […]
endpoint: C0 (µg/mL)

| smilesRecord | unit | quantitativeResult |
| --- | --- | --- |
| C#Cc1c(F)ccc2cc(O)cc(-c3ncc4c(N5CCCCCN5)nc(OC[C@@]56CCCN5C[C@H](F)C6)nc4c3F)c12 | µg/mL | 96.1 |

###

Here the recorded IC50 is given for each entry.
- System: AGS gastric cancer cell line with KRAS G12D mutation
- protocolNotes: Proliferation inhibition on RAS cell lines measured by CTG (CellTiter Glo), AGS
- Type: cell-based
- details: Table 1, AGS cells, incubated for 5 days

| molecule | IC50 |
| --- | --- |
| CCc1c(F)ccc2cc(O)cc(-c3ncc4c(N5CC(C)(O)CCN5)nc(OCC56CCCN5CC(F)C6)nc4c3F)c12 (single isomer, unassigned) [Compound 2-1] | < 100 nM |
| C#Cc1c(F)ccc2cc(O)cc(-c3ncc4c(N5CCOCCN5)nc(OC[C@@]56CCCN5C[C@H](F)C6)nc4c3F)c12 [Compound 7] | < 100 nM |

###

Here the recorded pIC50 is given for each entry.
- Test system: GP2D cells
- protocolNotes: Proliferation inhibition on RAS cell lines measured by CTG, GP2D
- Type: cell-based
- details: Table 3, incubated for 6 days, CellTiter Glo, read-out: IC50 (GP2D^l)
pIC50: −log10 of the molar value.
endpoint: pIC50

| smilesRecord | endpoint | result |
| --- | --- | --- |
| CCc1c(F)ccc2c(F)c(O)cc(-c3ncc4c(N5CCCCCN5)nc(OC[C@@]56CCCN5C[C@H](F)C6)nc4c3F)c12 | pIC50 | 6.00 to 7.00 |
| C#Cc1c(F)ccc2cc(OC(=O)[C@@H](NC(=O)OC(C)(C)C)C(C)C)cc(-c3ncc4c(N5CCCCCN5)nc(OC[C@@]56CCCN5C[C@H](F)C6)nc4c3F)c12 | pIC50 | > 7.00 |
| C#Cc1c(F)ccc2cc(O)cc(-c3ncc4c(N5CCCCCN5)nc(OC[C@@]56CC[C@H](c7cc(F)c(F)c(F)c7)N5C[C@H](F)C6)nc4c3F)c12 | pIC50 | > 7.00 |
| C#Cc1c(F)ccc2cc(N)cc(-c3c(F)cc4c(N5CCCCCN5)nc(OC[C@@]56CCCN5C[C@H](F)C6)nc4c3F)c12 | pIC50 | 6.00 to 7.00 |
| C#Cc1c(F)ccc2cc(O)cc(-c3ncc4c(N5CCCCCN5)nc(OCC5(CN6CCC(OCC(=O)N[C@H](C(=O)N7C[C@H](O)C[C@H]7C(=O)N[C@@H](C)c7ccc(-c8scnc8C)cc7)C(C)(C)C)CC6)CC5)nc4c3F)c12 | pIC50 | > 7.00 |
| C#Cc1c(F)ccc2cc(OC(=O)COCCOCCOCCOC)cc(-c3ncc4c(N5CCCCCN5)nc(OC[C@@]56CCCN5C[C@H](F)C6)nc4c3F)c12 | pIC50 | > 7.00 |

###

- protocolNotes: Pharmacokinetic study in mice after intravenous administration
- Format: in vivo
- details: mouse, 5 mg/kg, male C57BL/6J mice, plasma, read-out: Vss

| smilesRecord | Vd |
| --- | --- |
| C#Cc1c(F)ccc2cc(O)cc(-c3ncc4c(N5CCCCCN5)nc(OC[C@@]56CCCN5C[C@H](F)C6)nc4c3F)c12 | 0.205 L/kg |
